Biological target: Adenylate Kinase (rabbit muscle) (Oryctolagus cuniculus, UniProt P00569)
Construct: Enzyme (rabbit muscle) was purchase from Sigma
Sequence (P00569 1-194): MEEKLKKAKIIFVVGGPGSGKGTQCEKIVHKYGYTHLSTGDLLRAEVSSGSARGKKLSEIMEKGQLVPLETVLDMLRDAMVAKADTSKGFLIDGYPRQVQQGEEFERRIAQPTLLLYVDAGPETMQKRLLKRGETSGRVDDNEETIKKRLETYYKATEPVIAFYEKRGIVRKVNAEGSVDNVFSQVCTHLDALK
Experiment: AMP Site/Enzyme Selectivity: Adenylate Kinase
Conditions: read-out: Adenylate Kinase (inh.)
pIC50: −log10 of the molar value.
property.name: pIC50

Sure, the documented pIC50 for CC(C)Cc1oc(N)nc1-c1ccc(P(=O)(O)O)o1 is < 3.30

Sure, the documented pIC50 for CC(C)Cc1sc(N)nc1-c1ccc(P(=O)(O)O)o1 is < 3.30
